Give protein stability index for every item shown.
- Assay remarks: protein stability index of a GFP-peptide fusion (GPS, HEK-293T) (PSI 1-6); higher = more stable;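 also: 24-mer peptide tiles fused after GFP, lentivirally expressed, FACS-sorted into six equal bins by GFP/DsRed ratio, decoded by Illumina sequencing, PSI is the read-weighted mean bin number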
- Measurement conditions: treatment: MLN4924 1 uM, 8 h; c terminus: a fixed tail appended
Numbers only.

RATRAGAAEEPGVRGLLASLFAFK [C2CD2L]    3.01

Please give protein stability index, item by item, for the list that follows.
1. INQVLLFLLIVTLCVILYKKVHKG [GLT8D2]
2. APAKYTVFDAEGYVKPQSCIDIVI [MOSPD3]
3. DKSPSTVRDQGPSIPLTPGDTPIR [FBF1]

1: 3.04; 2: 2.5; 3: 5.26

###

- Assay remarks: protein stability index of a GFP-peptide fusion (GPS, HEK-293T) (PSI 1-6); higher = more stable
- Measurement conditions: treatment: MLN4924 1 uM, 8 h; c terminus: a fixed tail appended
Give protein stability index for every item shown.
Give bare numbers.

Below: 8 sequences and their reported protein stability index.
KTKYILLMDIVPADDHRYKFADNK [TBX5]    2.3
IEKCTTPLSDDHDEKYGVPSLEEL [CRY1]    5.14
SRLGQGIGPIHLNEIQCTGNEKSI [LOXL2]    4.09
LPSLRTVSSSVIEQLFFVRLVGKT [NR2F2]    2.28
ALADVEVKYIVERTMLDFPQHVSS [NLN]    2.39
TQNHAASALPTGSPKRGTAPGDLS [FBF1]    5.13
YETKYVVLSYLGLLSQEKLQEQHL [BCL2L13]    2.62
ENIDSLYNVNLSKGRAALSATVPR [SCNN1D]    4.04

Please give protein stability index, item by item, for the list that follows.
1. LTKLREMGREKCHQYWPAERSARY [PTPRD]
2. MDRSLVQDAPLSDCTETIEGLELT [ADD1]
3. ENDSTPTVSTSEVTSQQEPQIPVD [TAF7L]
4. GKSFSQNTNLHTHQRTHTGEKPFT [ZNF75A]

1. 2.9
2. 5.32
3. 5.59
4. 4.25

Please give protein stability index, item by item, for the list that follows.
1. MNAVGSPEGQELQKLGSGAWDNPA [PKD2L1]
2. TEEVKFYQLGEEALLKFREDEGFV [KCNA4]
3. KALEILRKDFSELRSAGVEQLMYI [FAM50A]
4. GNLNIHQRTHTGEKPYGCIDCGKA [ZNF649]
5. ATFEKILESELLRGTQYSSLDSLD [PSD2]
6. LLFCCQCVDVVFYNPDLKKVVEAH [RHOBTB3]

4.35
4.3
2.38
4.14
2.41
3.01

Please give protein stability index, item by item, for the list that follows.
1. NRIKGCHDHLTLSVSRPEGRSWPS [PDLIM4]
2. QPPPPPPPPPMQPTVPSAATSQPT [CCDC6]
3. ESEEEGPWEPPVLPILTWPVLQSR [HDAC6]

1. 3.02
2. 5.29
3. 4.37

###

- Assay remarks: protein stability index of a GFP-peptide fusion (GPS, HEK-293T) (PSI 1-6); higher = more stable
- Measurement conditions: treatment: DMSO; c terminus: a fixed tail appended
If the reported protein stability index equals or exceeds 3, assign condition met. If not, assign condition not met.

Solved cases (5 shown):
LIHPELNEGLMKWENRHEGVFKFL [ELF3]    condition not met
VAQGPTNQGLNVMVWNQNGKSPSI [ADAMTSL2]    condition met
HPDPAPFCADNPSELPPPMERTGG [DVL3]    condition met
SHAWEVALGGLQSWRVGVVRVRQD [TRIM35]    condition not met
IGHFNTASGVGFILGPVVGGYLTE [MFSD9]    condition not met

Is protein stability index at least 3? Consider PGRPRTDGENVFTGQSKIYSYMSP [KMT5A]
condition met

Is protein stability index at least 3? Consider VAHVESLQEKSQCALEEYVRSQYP [NR2F2]
condition met

Is protein stability index at least 3? Consider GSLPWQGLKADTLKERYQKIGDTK [CSNK1G1]
condition met

Is protein stability index at least 3? Consider SKESSKEKKLTVRQDLEDRYAEHV [C22orf31]
condition met

Every entry's value here was drawn from the supplement of paper PMC10567573.
